test system: smallflower flatsedge; experiment: Test B flood test smallflower flatsedge; format: in vivo, Cyperus difformis; conditions: Rate 250 g/ha; Pre-emergence; flood-test species; scale 0 to 10, 0 is no effect, 10 is complete control
S. Flatsedge plant response rating values, listed per item
Respond using a number only.

Example entries begin here.
{"columns": ["MOLECULE", "RESULT NUMBER"],
 "data": [
  ["CCN(Cc1ccncc1)C(=O)n1oc(=O)n(C(C)C)c1=O [Compound 189]", 0],
  ["CC(Cl)=CCn1c(=O)on(C(=O)N(c2ccc(F)cc2)C(C)C)c1=O [Compound 285]", 0]
]}

input: Give the value of S. Flatsedge plant response rating reported for the following: CC(C)N(C(=O)n1oc(=O)n(CCc2ccccc2)c1=O)c1ccc(F)cc1 [Compound 250]
output: 0

input: Give the value of S. Flatsedge plant response rating reported for the following: CC(C)N(C(=O)n1oc(=O)n(C2CCCCCC2)c1=O)c1ccc(F)cc1 [Compound 340]
output: 2

input: Give the value of S. Flatsedge plant response rating reported for the following: Cc1nc(Cl)sc1C(C)n1c(=O)on(C(=O)N(c2ccccc2)C(C)C)c1=O (centres unmarked) [Compound 407]
output: 0

input: Give the value of S. Flatsedge plant response rating reported for the following: CC1CC1Cn1c(=O)on(C(=O)N(c2ccc(F)cc2)C(C)C)c1=O (centres unmarked) [Compound 402]
output: 0

input: Give the value of S. Flatsedge plant response rating reported for the following: Cc1nc(Cl)sc1C(C)n1c(=O)on(C(=O)N(c2ccc(F)cc2F)C(C)C)c1=O (centres unmarked) [Compound 405]
output: 0

input: Give the value of S. Flatsedge plant response rating reported for the following: Cc1noc(C)c1Cn1c(=O)on(C(=O)N(c2ccc(F)cc2)C(C)C)c1=O [Compound 259]
output: 0

###

test system: giant foxtail; assay: Test B pre/postemergence giant foxtail; assay type: in vivo, Setaria faberii; settings: Preemergence, Rate 62 g/ha; scale of 0 to 10 where 0 is no effect and 10 is complete control
METRIC NAME: Giant foxtail plant response rating
Respond using a number only.

Example entries begin here.
{"columns": ["COMPOUND", "Giant foxtail plant response rating"],
 "data": [
  ["CCN(C(=O)n1oc(=O)n(N(C)c2ccccc2)c1=O)C1CCCCC1 [Compound 183]", 0],
  ["CC(C)N(C(=O)n1oc(=O)n(N(C)c2ccccc2)c1=O)c1ccc(F)cc1 [Compound 177]", 3],
  ["CC(C)N(C(=O)n1oc(=O)n(Cc2nnc(Cl)s2)c1=O)c1ccc(Cl)cc1 [Compound 653]", 0],
  ["CCN(Cc1ccncc1)C(=O)n1oc(=O)n(C(C)C)c1=O [Compound 189]", 0]
]}

input: Give the value of Giant foxtail plant response rating reported for the following: CC(C)N(C(=O)n1oc(=O)n(Cc2nnc(Cl)s2)c1=O)c1ccc(F)cc1 [Compound 646]
output: 0

input: Give the value of Giant foxtail plant response rating reported for the following: CC(C)N(C(=O)n1oc(=O)n(C2CCCC(C(F)(F)F)C2)c1=O)c1ccc(F)cc1 (stereo not shown) [Compound 184]
output: 0

input: Give the value of Giant foxtail plant response rating reported for the following: CC(C)N(C(=O)n1oc(=O)n(CCCCCl)c1=O)c1ccc(F)cc1 [Compound 712]
output: 10
